Task for the reader: assign each of the following compounds its reported IC50 (ug/ml) HSV.
system: HSV-1; assay: HSV Antiviral (ELISA) assay; type: cell-based; settings: HSV-1 in Vero cells
Give bare numbers, in µg/mL.

- smiles.input: "O=C(Nc1ccc(NC(=S)NCc2cccc(Cl)c2)cc1)c1ccco1"
  target: "HSV-1"
  IC50 (ug/ml) HSV, µg/mL: 8

Here is another compound to look at.
Given the entry COc1cc(OC)c(NC(=S)Nc2ccc(NC(=O)c3ccccn3)cc2)cc1Cl , report its measured IC50 (ug/ml) HSV. 3.5

###

test system: VZV strain Ellen; test: VZV Antiviral (ELISA) assay; format: cell-based; settings: VZV strain Ellen in HFF cells
Please go through the items and note down their IC50 (ug/ml) VZV.

Sample answers from the record:
- molecule: "O=C(Nc1ccc(NC(=S)NCCc2cccc(Cl)c2)cc1)c1csnn1"
  target: "VZV strain Ellen"
  IC50 (ug/ml) VZV: "8 µg/mL"
- molecule: "CC(C)(C)c1cccc(NC(=S)Nc2ccc(NC(=O)c3csnn3)cc2)c1"
  target: "VZV strain Ellen"
  IC50 (ug/ml) VZV: ">10 µg/mL"
- molecule: "O=C(Nc1ccc(NC(=S)Nc2cc(N3CCOCC3)cc(C(F)(F)F)c2)cc1)c1csnn1"
  target: "VZV strain Ellen"
  IC50 (ug/ml) VZV: ">10 µg/mL"
- molecule: "COc1cccc(CCNC(=S)Nc2ccc(NC(=O)c3ccco3)cc2)c1"
  target: "VZV strain Ellen"
  IC50 (ug/ml) VZV: ">10 µg/mL"

Field: IC50 (ug/ml) VZV. Fill in for each record below.
1. CC(C)Cc1cc(NC(=S)Nc2ccc(NC(=O)c3csnn3)cc2)cc(C(F)(F)F)c1
2. Nc1c(Br)cc(NC(=S)Nc2ccc(NC(=O)c3csnn3)cc2)cc1Br
3. CC(NC(=S)Nc1ccc(NC(=O)c2cscn2)cc1)c1ccccc1Br (stereo not shown)
4. O=C(Nc1ccc(NC(=S)NCCc2cccc(F)c2)cc1)c1ccco1
5. Cc1cccc(NC(=S)Nc2ccc(NC(=O)c3ccco3)cc2)c1
6. O=C(Nc1ccc(NC(=S)Nc2ccc3scnc3c2)cc1)c1ccco1
7. O=C(CN1CCCC1)Nc1ccc(NC(=S)Nc2ccc(NC(=O)c3ccco3)cc2)cc1Cl
8. O=C(Nc1ccc(NC(=S)NCc2cc(F)cc(C(F)(F)F)c2)cc1)c1ccco1

1: >10 µg/mL; 2: 3 µg/mL; 3: >7.5 µg/mL; 4: >10 µg/mL; 5: >10 µg/mL; 6: >10 µg/mL; 7: >15 µg/mL; 8: >10 µg/mL

Count: 2. Required value per item: IC50 (ug/ml) VZV.
1. O=C(Nc1ccc(CNC(=S)Nc2ccc(Cl)c(C(F)(F)F)c2)cc1)c1csnn1
2. COc1cc(OC)c(NC(=S)Nc2ccc(NC(=O)c3cc4ccccc4o3)cc2)cc1Cl

1. 6 µg/mL
2. >10 µg/mL

# per-item lookup of IC50 (ug/ml) VZV; items listed below
1. COc1cc(OC)c(NC(=S)Nc2ccc(NC(=O)c3ccncc3)cc2)cc1Cl
2. O=C(Nc1ccc(NC(=S)Nc2cccc(C(F)(F)F)c2)cc1)c1csnn1
3. Cc1ccc(NC(=S)Nc2ccc(NC(=O)c3ccccn3)cc2)cc1Cl

[">10 µg/mL", ">10 µg/mL", ">10 µg/mL"]
